Test system: PBMC
Assay: Immunomodulatory activity in PHA-stimulated human PBMC assessed as inhibition of IL2 production after 3 days by enzyme immuno assay
Format: functional, cell-based
Conditions: 72 h
assay.endpoint: IC50 (µM)
One number for each entry, in µM.

Ask: Please look up its IC50: Oc1cc(O)c2c(c1)O[C@@]1(c3ccc(O)c(O)c3)Oc3cc(O)c4c(c3[C@@H]2[C@H]1O)O[C@H](c1ccc(O)c(O)c1)[C@@H](O)C4
Result: 25
